// data source = paper PMC6479711

protocol.details: Host cell toxicity (AlamarBlue)
Assay type: cell-based, human
particulars: human, human primary skin fibroblasts (hFIB); hFIB viability 72 h after treatment; read-out: hFIB CC50 ± SEM
result.type: CC50 at 72 h

Please review the following examples before continuing.
Param item = CCCCCC/C=C\CCCCCCCc1cccc(O)c1C(=O)O [Compound 6] ; retrieve measured CC50 at 72 h.
> 100 µM

Same for O=C(Cn1ccnc1[N+](=O)[O-])NCc1ccccc1 [Benznidazole, reference compound]
> 100 µM

Next up:
Which measured CC50 at 72 h value corresponds to CCC/C=C\C/C=C\CCCCCCCc1cccc(O)c1C(=O)O [Compound 5] ?
> 100 µM
